// provenance: patent US4639433A

system: Streptococcus pneumoniae; experiment: Experimental bacterial infection in mice, ED50; assay type: in vivo; conditions: two doses, administered subcutaneously
MEASURED QUANTITY: ED50 (mg/kg/2)
Give the quantity in mg/kg/2, number only.

COMPOUND: CCCCCCCCCCCC(=O)NC1(C)CC(OC2C(Oc3c4cc5cc3Oc3ccc(cc3Cl)C(O)C3NC(=O)C(NC(=O)C5NC(=O)C(CC(N)=O)NC(=O)C(NC(=O)C(CC(C)C)NC)C(O)c5ccc(c(Cl)c5)O4)c4ccc(O)c(c4)-c4c(O)cc(O)cc4C(C(=O)O)NC3=O)OC(CO)C(O)C2O)OC(C)C1O (centres unmarked)
ED50, mg/kg/2: 0.9

q: Reported ED50, compound CCCCCCCCCC(=O)NC1(C)CC(OC2C(Oc3c4cc5cc3Oc3ccc(cc3Cl)C(O)C3NC(=O)C(NC(=O)C5NC(=O)C(CC(N)=O)NC(=O)C(NC(=O)C(CC(C)C)NC)C(O)c5ccc(c(Cl)c5)O4)c4ccc(O)c(c4)-c4c(O)cc(O)cc4C(C(=O)O)NC3=O)OC(CO)C(O)C2O)OC(C)C1O (centres unmarked) : ____
a: 1.4

q: Would you mind doing CCCC(=O)NC1(C)CC(OC2C(Oc3c4cc5cc3Oc3ccc(cc3Cl)C(O)C3NC(=O)C(NC(=O)C5NC(=O)C(CC(N)=O)NC(=O)C(NC(=O)C(CC(C)C)NC)C(O)c5ccc(c(Cl)c5)O4)c4ccc(O)c(c4)-c4c(O)cc(O)cc4C(C(=O)O)NC3=O)OC(CO)C(O)C2O)OC(C)C1O (centres unmarked) as well?
a: 3.6

q: And CCCCCCCCCCCCCC(=O)NC1(C)CC(OC2C(Oc3c4cc5cc3Oc3ccc(cc3Cl)C(O)C3NC(=O)C(NC(=O)C5NC(=O)C(CC(N)=O)NC(=O)C(NC(=O)C(CC(C)C)NC)C(O)c5ccc(c(Cl)c5)O4)c4ccc(O)c(c4)-c4c(O)cc(O)cc4C(C(=O)O)NC3=O)OC(CO)C(O)C2O)OC(C)C1O (centres unmarked) ?
a: 1.3
